From: patent US7902373B2

target: human recombinant H-PGDS (Homo sapiens, UniProt O60760); test: Fluorescence intensity h-PGDS TBA enzyme assay; type: biochemical; details: Examples up to 622 (and 3a, 3b)
Sequence (O60760 whole entry): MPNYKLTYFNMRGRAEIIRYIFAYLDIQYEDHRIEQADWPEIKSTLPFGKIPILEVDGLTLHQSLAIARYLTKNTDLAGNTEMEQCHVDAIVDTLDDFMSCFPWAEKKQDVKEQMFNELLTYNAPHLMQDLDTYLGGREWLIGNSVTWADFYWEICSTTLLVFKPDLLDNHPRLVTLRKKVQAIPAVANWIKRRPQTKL
# 1 = IC50 below 1 nM (exclusive); 0 = IC50 at/above 1 nM

| compound | category_label |
| --- | --- |
| CC1(CN2CCC(NC(=O)c3ccc(-c4cccc(F)c4)nc3)CC2)CCC1 [Example 511] | 0 |
| Cc1c(CN2CCC(NC(=O)c3ccc(-c4cccc(F)c4)nc3)CC2)nc2ccccn12 [Example 432] | 1 |
| Cn1nccc1-c1ccc(CN2CCC(NC(=O)c3ccc(-c4cccc(F)c4)nc3)CC2)cc1 [Example 474] | 0 |
| CCN(C)C(=O)c1ccc(N2CCC(NC(=O)c3ccc(-c4cccc(F)c4)nc3)CC2)nc1 [Example 566] | 0 |
| CN(C)c1nccc(CN2CCC(NC(=O)c3ccc(-c4cccc(F)c4)nc3)CC2)n1 [Example 392] | 1 |

###

molecular target: human recombinant H-PGDS (Homo sapiens, UniProt O60760); test: Fluorescence intensity h-PGDS TBA enzyme assay; type: biochemical; settings: Examples up to 622 (and 3a, 3b)
pIC50: −log10 of the molar value.

| compound | pIC50 |
| --- | --- |
| COc1cccc(C2(CN3CCC(NC(=O)c4ccc(-c5cccc(F)c5)nc4)CC3)CCOCC2)c1 | 8.92 |
| O=C(NC1CCN(Cc2cccc3cccnc23)CC1)c1ccc(-c2cccc(F)c2)nc1 | 9.24 |
| O=C(NC1CCN(Cc2ccccn2)CC1)c1ccc(-c2ccccc2)nc1 | 9.18 |
| O=C(NC1CCN(c2cnccn2)CC1)c1ccc(-c2cccc(F)c2)nc1 | 9.23 |
| COCn1c(CN2CCC(NC(=O)c3ccc(-c4cccc(F)c4)nc3)CC2)nc2ccccc21 | 8.96 |
| NC(=O)c1cc2c(nc1N1CCC(NC(=O)c3ccc(-c4cccc(F)c4)nc3)CC1)CCC2 | 8.75 |
| CCOc1ccc(CN2CCC(NC(=O)c3ccc(-c4cccc(F)c4)nc3)CC2)cc1 | 8.78 |
| Cc1nn(-c2ccc(F)cc2)c(C)c1CN1CCC(NC(=O)c2ccc(-c3cccc(F)c3)nc2)CC1 | 8.98 |
| O=CN1CCC(NC(=O)c2ccc(-c3cccc(F)c3)nc2)CC1 | 8.75 |
| O=C(NC1CCN(Cc2cc(Cl)c(O)c(Cl)c2)CC1)c1ccc(-c2cccc(F)c2)nc1 | 9.00 |
| O=C(NC1CCN(c2ncccc2C(=O)N2CCCC2)CC1)c1ccc(-c2cccc(F)c2)nc1 | 8.94 |
| CCC(COC)n1cnc2c(N3CCC(NC(=O)c4ccc(-c5cccc(F)c5)nc4)CC3)ncnc21 (stereo not shown) | 8.79 |
| O=C(NC1CCN(Cc2ccc3ncccc3c2)CC1)c1ccc(-c2cccc(F)c2)nc1 | 9.07 |
| O=C(NC1CCN(Cc2nc3ccccc3n2CCF)CC1)c1ccc(-c2cccc(F)c2)nc1 | 9.03 |
| CC(C)Oc1cccc(CN2CCC(NC(=O)c3ccc(-c4cccc(F)c4)nc3)CC2)c1 | 8.74 |
| CCOC(=O)Cn1ccc2cc(CN3CCC(NC(=O)c4ccc(-c5cccc(F)c5)nc4)CC3)ccc21 | 8.84 |

###

Overview of reported pIC50 across a group of compounds:
target: human recombinant H-PGDS (Homo sapiens, UniProt O60760); assay: Fluorescence intensity h-PGDS TBA enzyme assay; assay type: biochemical; conditions: Examples up to 622 (and 3a, 3b)
pIC50: −log10 of the molar value.

| compound | pIC50 |
| --- | --- |
| CCOC(=O)N1CCC(NC(=O)c2ccc(-c3cc(F)ccc3F)nc2)CC1 [Example 584] | 8.86 |
| CC(C)(C)OC(=O)N1CCC(CN2CCC(NC(=O)c3ccc(-c4cccc(F)c4)nc3)CC2)C1 (stereo not shown) [Example 345] | 9.29 |
| O=C(NC1CCN(c2nc3ccccc3s2)CC1)c1ccc(-c2cccc(F)c2)nc1 [Example 153] | 8.72 |
| COc1ccc2c(c1)CCC2N1CCC(NC(=O)c2ccc(-c3cccc(F)c3)nc2)CC1 (stereo not shown) [Example 528] | 8.60 |
